molecular target: hα4 and β1 integrins (VLA-4) (Homo sapiens, UniProt P05556+P13612); assay: In vitro evaluation: inhibition of binding of CHO cells expressing hα4 and β1 integrins to Eu3+-hVCAM-1 D1D7-IgG; settings: ligand Eu3+-hVCAM-1 D1D7-IgG 2 nM, Ki calculated from IC50
Sequence (P13612 34-1032): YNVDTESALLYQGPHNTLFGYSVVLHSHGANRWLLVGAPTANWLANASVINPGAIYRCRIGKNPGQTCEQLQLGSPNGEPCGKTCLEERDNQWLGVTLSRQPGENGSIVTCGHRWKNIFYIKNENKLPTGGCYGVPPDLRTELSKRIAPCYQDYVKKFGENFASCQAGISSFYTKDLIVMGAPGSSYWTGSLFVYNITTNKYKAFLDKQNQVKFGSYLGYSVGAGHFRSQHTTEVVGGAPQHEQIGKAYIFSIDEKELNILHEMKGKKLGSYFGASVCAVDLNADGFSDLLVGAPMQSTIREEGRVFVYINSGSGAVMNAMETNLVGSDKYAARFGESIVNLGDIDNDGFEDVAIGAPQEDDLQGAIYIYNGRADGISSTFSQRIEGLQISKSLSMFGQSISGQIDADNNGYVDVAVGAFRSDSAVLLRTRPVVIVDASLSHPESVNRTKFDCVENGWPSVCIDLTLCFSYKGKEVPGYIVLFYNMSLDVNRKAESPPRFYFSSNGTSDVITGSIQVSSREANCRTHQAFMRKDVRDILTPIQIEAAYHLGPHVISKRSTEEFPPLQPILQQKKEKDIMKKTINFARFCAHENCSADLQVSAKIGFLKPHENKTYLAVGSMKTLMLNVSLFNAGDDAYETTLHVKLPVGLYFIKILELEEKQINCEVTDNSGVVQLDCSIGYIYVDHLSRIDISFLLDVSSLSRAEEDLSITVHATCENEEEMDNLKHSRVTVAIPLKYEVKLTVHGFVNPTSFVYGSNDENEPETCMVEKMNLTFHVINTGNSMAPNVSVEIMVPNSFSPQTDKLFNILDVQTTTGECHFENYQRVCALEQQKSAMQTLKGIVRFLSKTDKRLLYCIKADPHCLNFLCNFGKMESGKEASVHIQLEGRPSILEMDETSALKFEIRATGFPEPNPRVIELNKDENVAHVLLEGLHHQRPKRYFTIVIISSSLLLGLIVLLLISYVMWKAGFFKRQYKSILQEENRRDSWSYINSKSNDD
Sequence (P05556 21-798): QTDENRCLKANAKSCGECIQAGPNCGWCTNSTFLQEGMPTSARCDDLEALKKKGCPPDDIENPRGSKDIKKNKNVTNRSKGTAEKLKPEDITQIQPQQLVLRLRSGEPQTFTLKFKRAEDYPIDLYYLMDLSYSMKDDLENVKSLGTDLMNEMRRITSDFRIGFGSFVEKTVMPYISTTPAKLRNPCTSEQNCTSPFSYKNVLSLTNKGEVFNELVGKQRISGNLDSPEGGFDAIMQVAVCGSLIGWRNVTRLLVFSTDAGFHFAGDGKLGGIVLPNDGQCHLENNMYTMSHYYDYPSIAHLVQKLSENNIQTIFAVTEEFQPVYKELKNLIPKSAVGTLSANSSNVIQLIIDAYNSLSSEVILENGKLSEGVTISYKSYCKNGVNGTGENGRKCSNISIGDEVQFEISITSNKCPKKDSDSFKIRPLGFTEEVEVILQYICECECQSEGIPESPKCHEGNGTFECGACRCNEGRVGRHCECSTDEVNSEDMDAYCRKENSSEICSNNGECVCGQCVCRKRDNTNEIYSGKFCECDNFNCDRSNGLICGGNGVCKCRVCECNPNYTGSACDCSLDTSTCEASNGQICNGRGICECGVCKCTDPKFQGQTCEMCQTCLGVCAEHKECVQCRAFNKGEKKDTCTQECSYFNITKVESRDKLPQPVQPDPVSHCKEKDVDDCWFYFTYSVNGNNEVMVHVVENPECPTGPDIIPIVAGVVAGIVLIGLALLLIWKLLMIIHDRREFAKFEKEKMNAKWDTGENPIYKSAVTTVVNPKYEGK
pKi: −log10 of the molar value.

# compound, target.entity, pKi
measured = [
    ("CO[C@H]1C[C@@H](c2cc(CCC(=O)O)on2)N(C(=O)Cc2cc(Cl)c(NC(=O)c3csc4ccccc34)cc2F)C1 [Example 33]", "hα4 and β1 integrins (VLA-4) (Homo sapiens, UniProt P05556+P13612)", 8.70),
    ("C[C@@H]1CN([C@H]2C[C@@H](c3ncc(CCC(=O)O)s3)N(C(=O)Cc3cc(Cl)c(NC(=O)c4csc5ccccc45)cc3Cl)C2)C[C@H](C)O1 [Example 88]", "hα4 and β1 integrins (VLA-4) (Homo sapiens, UniProt P05556+P13612)", 8.92),
    ("CCO[C@H]1CCN(C(=O)Cc2cc(Cl)c(NC(=O)c3cn(C)c4ccccc34)cc2Cl)[C@@H]1c1ncc(CCC(=O)O)s1 [Example 92]", "hα4 and β1 integrins (VLA-4) (Homo sapiens, UniProt P05556+P13612)", 8.00),
]

* * *

Catalogue of Ki values
target: hα4 and β1 integrins (VLA-4) (Homo sapiens, UniProt P05556+P13612); experiment: In vitro evaluation: inhibition of binding of CHO cells expressing hα4 and β1 integrins to Eu3+-hVCAM-1 D1D7-IgG; details: ligand Eu3+-hVCAM-1 D1D7-IgG 2 nM, Ki calculated from IC50
measured.quantity: Ki (nM)

# molecule, measured.quantity, endpoint.unit, reported
records = [
    ("O=C(O)CCc1cnc([C@@H]2C[C@H](OC3CCC3)CN2C(=O)Cc2cc(Cl)c(NC(=O)c3coc4ccccc34)cc2F)s1 [Example 43]", "Ki", "nM", 2.9),
    ("CON(C)[C@H]1C[C@@H](c2ncc(CCC(=O)O)s2)N(C(=O)Cc2cc(Cl)c(NC(=O)c3cn(C)c4ccccc34)cc2Cl)C1 [Example 128]", "Ki", "nM", 6.7),
    ("COc1ccc(F)cc1Nc1nc2ccc(CC(=O)N3C[C@@H](OC)C[C@H]3c3ncc(CCC(=O)O)o3)c(F)c2o1 [Example 16]", "Ki", "nM", 22),
    ("O=C(O)CCc1cnc([C@@H]2C[C@H](N3CCC(F)(F)CC3)CN2C(=O)Cc2cc(Cl)c(NC(=O)c3csc4ccccc34)cc2Cl)s1 [Example 76]", "Ki", "nM", 0.79),
    ("CON(C)[C@H]1C[C@@H](c2ncc(CCC(=O)O)s2)N(C(=O)Cc2cc(Cl)c(NC(=O)c3csc4ccccc34)cc2F)C1 [Example 129]", "Ki", "nM", 2.4),
    ("Cn1cc(C(=O)Nc2cc(F)c(CC(=O)N3C[C@@H](OC4CCC4)C[C@H]3c3ncc(CCC(=O)O)s3)cc2Cl)c2ccccc21 [Example 40]", "Ki", "nM", 4),
]

* * *

Catalogue of AUC (total area under the plasma concentration versus time curve) values
assay: Intracorporeal kinetics and oral absorbing property test (dog, oral cassette); type: in vivo; details: orally administered, 0.5 mg/kg cassette, LC/MS/MS
measured.quantity: AUC (total area under the plasma concentration versus time curve) (ng·h/mL)

# line.notation, reported
records = [
    ("COC[C@@H]1CC[C@@H](c2ncc(CCC(=O)O)s2)N1C(=O)Cc1ccc2nc(Nc3cc(F)ccc3C)oc2c1F", 27620),
    ("CO[C@H]1C[C@@H](c2ncc(CCC(=O)O)s2)N(C(=O)Cc2cc(Cl)c(NC(=O)c3csc4ccccc34)cc2F)C1", 10240),
    ("CCOC[C@@H]1CC[C@@H](c2ncc(CCC(=O)O)s2)N1C(=O)Cc1ccc2nc(Nc3cc(F)ccc3C)oc2c1F", 32310),
    ("COC[C@@H]1CC[C@@H](c2ncc(CCC(=O)O)s2)N1C(=O)Cc1ccc2nc(Nc3cc(F)ccc3C)oc2c1", 14860),
    ("Cn1cc(C(=O)Nc2cc(Cl)c(CC(=O)N3[C@H](c4ncc(CCC(=O)O)s4)C[C@@H]4CCCC[C@@H]43)cc2Cl)c2ccccc21", 19770),
    ("CC(C)O[C@H]1C[C@@H](c2ncc(CCC(=O)O)s2)N(C(=O)Cc2cc(Cl)c(NC(=O)c3csc4ccccc34)cc2F)C1", 14935),
    ("CO[C@H]1C[C@@H](c2ncc(CCC(=O)O)s2)N(C(=O)Cc2cc(Cl)c(NC(=O)c3cn(C)c4ccccc34)cc2F)C1", 10690),
    ("CO[C@H]1C[C@@H](c2ncc(CCC(=O)O)s2)N(C(=O)Cc2cc(Cl)c(NC(=O)c3cn(C)c4ccccc34)cc2Cl)C1", 7040),
]

All figures here come from patent US20070232601A1.
